Reported Activity values are given for each entry in this list.
Target: UniProt P32245
Sequence (P32245 whole entry): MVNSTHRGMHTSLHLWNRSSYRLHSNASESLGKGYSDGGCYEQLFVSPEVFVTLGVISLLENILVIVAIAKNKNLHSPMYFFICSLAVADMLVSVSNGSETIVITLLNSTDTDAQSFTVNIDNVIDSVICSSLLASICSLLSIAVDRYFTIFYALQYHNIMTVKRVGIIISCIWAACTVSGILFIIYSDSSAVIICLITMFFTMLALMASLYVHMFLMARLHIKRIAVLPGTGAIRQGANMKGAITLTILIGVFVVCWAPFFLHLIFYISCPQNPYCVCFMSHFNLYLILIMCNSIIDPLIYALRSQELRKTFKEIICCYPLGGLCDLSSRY
Assay: Agonist activity at human MC4 receptor expressed in CHO cells assessed as increase of alpha-MSH-induced cAMP accumulation at 10 uM relative to alpha-MSH
Assay type: functional, cell-based

>  <MOLECULE>
CC(C)CC(CN(C(C)C)S(C)(=O)=O)N1CCN(C(=O)[C@@H]2CN(C(C)(C)C)C[C@H]2c2ccc(F)cc2F)CC1 (single isomer, unassigned; diastereomer 2)

>  <SYSTEM>
UniProt P32245

>  <Activity [%]>
100

$$$$
>  <MOLECULE>
CC(C)N(CC(N1CCN(C(=O)[C@@H]2CN(C(C)(C)C)C[C@H]2c2ccc(F)cc2F)CC1)C(C)(C)C)S(C)(=O)=O (stereo in doubt; 27A)

>  <SYSTEM>
UniProt P32245

>  <Activity [%]>
88

$$$$
>  <MOLECULE>
CC(C)N(CC(C1CCCCC1)N1CCN(C(=O)[C@@H]2CN(C(C)(C)C)C[C@H]2c2ccc(F)cc2F)CC1)C(=O)c1cnn(C(C)C)c1 (single isomer, unassigned; diastereomer 1)

>  <SYSTEM>
UniProt P32245

>  <Activity [%]>
106

$$$$
>  <MOLECULE>
CC(C)N(CC(N1CCN(C(=O)[C@@H]2CN(C(C)(C)C)C[C@H]2c2ccc(F)cc2F)CC1)C(C)(C)C)S(C)(=O)=O (stereo in doubt; 27B)

>  <SYSTEM>
UniProt P32245

>  <Activity [%]>
102

$$$$
>  <MOLECULE>
CC(=O)N(CC(C1CCCCC1)N1CCN(C(=O)[C@@H]2CN(C(C)(C)C)C[C@H]2c2ccc(F)cc2F)CC1)C(C)C (single isomer, unassigned; diastereomer 1)

>  <SYSTEM>
UniProt P32245

>  <Activity [%]>
134

$$$$
>  <MOLECULE>
CC(=O)N(CC(C1CCCCC1)N1CCN(C(=O)[C@@H]2CN(C(C)(C)C)C[C@H]2c2ccc(F)cc2F)CC1)C(C)C (stereo in doubt; 19B)

>  <SYSTEM>
UniProt P32245

>  <Activity [%]>
123

$$$$
